In this section, each of the compounds is paired with its reported pIC50.
TARGET SYSTEM: cGMP-dependent 3',5'-cyclic phosphodiesterase (Homo sapiens, UniProt O00408)
Sequence (O00408 whole entry): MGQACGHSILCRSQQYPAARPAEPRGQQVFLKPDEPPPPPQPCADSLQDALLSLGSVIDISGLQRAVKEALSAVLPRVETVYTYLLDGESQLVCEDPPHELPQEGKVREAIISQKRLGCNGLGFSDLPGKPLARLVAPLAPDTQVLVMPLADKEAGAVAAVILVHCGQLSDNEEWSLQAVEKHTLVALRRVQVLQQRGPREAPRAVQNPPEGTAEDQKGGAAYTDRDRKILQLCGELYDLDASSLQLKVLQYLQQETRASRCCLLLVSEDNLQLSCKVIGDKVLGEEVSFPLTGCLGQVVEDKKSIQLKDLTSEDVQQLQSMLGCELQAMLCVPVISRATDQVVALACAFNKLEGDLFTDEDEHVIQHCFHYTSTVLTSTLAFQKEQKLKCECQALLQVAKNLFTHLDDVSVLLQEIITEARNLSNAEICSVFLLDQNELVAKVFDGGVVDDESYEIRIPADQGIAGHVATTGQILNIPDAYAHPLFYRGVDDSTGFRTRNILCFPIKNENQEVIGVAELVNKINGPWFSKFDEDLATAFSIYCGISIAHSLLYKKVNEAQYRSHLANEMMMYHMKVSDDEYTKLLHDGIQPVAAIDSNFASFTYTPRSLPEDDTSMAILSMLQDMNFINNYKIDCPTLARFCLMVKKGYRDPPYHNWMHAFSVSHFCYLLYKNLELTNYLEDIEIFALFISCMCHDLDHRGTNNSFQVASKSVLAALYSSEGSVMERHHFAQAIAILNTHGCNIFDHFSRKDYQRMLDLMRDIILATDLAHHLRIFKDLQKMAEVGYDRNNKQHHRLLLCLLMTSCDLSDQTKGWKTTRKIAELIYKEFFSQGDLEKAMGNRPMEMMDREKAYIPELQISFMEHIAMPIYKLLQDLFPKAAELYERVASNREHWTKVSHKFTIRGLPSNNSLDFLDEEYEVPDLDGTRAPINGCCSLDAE
EXPERIMENT DESCRIPTION: Inhibition of cGMP activated human recombinant PDE2A using [3H]cAMP as substrate after 30 mins by scintillation proximity assay
pIC50: −log10 of the molar value.

| LINE NOTATION | pIC50 |
| --- | --- |
| COc1cc(Br)cc2c1nc(C)c1c(C)nc(-c3ccc(F)nc3)n12 | < 6.00 |
| COc1cc(Br)cc2c1nc(C)c1c(C)nc(-c3ccnc(F)c3)n12 | < 6.00 |

Then there is this compound:
get_value(item= COc1cc(-c2ccc(F)nc2)cc2c1nc(C)c1c(C)ncn12 , readout=pIC50) returns < 6.00
